Target protein (sequence): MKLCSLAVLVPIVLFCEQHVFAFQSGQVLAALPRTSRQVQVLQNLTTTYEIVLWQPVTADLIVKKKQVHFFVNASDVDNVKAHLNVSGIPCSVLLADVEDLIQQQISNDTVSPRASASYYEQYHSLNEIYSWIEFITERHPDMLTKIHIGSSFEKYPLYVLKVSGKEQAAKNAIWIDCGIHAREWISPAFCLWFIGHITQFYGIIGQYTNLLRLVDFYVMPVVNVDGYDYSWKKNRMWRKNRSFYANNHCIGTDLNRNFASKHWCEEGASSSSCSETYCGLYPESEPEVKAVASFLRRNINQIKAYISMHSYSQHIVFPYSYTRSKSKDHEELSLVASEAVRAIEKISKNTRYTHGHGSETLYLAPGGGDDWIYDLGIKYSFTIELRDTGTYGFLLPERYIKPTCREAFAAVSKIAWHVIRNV
pKi: −log10 of the molar value.
measurement-label: pKi

INSERT INTO assay_data (compound, reported_result) VALUES
  ('Nc1nccc2ccc(CC(N)C(=O)O)cc12 (stereo not drawn)', 3.84);

P = Nc1nccc2cc(CC(N)C(=O)O)ccc12 (stereo not drawn)
Q = O=C(Cn1nnc(-c2cccs2)n1)N1CCc2ccccc2C1
[Q] For the pair P and Q , which member has the lower pKi number? // respond with label for picked entry
[A] P
(P: 3.66, Q: 4.49)

---

- system-under-test: Carboxypeptidase A1 (Bos taurus, UniProt P00730)
- Sequence (P00730 whole entry): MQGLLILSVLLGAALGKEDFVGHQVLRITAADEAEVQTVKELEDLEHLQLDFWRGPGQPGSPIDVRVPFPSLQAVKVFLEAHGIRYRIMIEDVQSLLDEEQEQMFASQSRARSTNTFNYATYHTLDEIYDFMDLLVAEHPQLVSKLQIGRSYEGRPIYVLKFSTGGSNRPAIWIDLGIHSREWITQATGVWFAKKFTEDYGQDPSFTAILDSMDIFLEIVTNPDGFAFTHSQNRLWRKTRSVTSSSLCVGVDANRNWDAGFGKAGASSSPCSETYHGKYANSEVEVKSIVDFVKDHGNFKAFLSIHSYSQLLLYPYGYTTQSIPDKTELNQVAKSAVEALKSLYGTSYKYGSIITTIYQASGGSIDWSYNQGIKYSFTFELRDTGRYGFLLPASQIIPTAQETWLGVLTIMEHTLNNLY
pKi: −log10 of the molar value.
measurement-label: pKi

P = Nc1nccc2ccc(CC(N)C(=O)O)cc12 (configuration not stated)
Q = O=C(O)CCSc1nnc(COc2cccc3ccccc23)n1-c1ccccc1
[Q] Form field 'greater pKi' accepts P or Q ; which applies? // respond with label for picked entry
[A] Q
